- protocol text: Determination of peptide hydrophobicity with RP-HPLC (adjusted retention time)
- Assay type: physicochemical
- test conditions: Table 1 and b9; measure of hydrophobicity; RP-HPLC, Phenomenex Luna C18(2) 3.0 × 100 mm, 5 µm, linear 10–55% acetonitrile in water over 60 min, 0.1% TFA, 0.5 mL/min, 25.0 °C, UV 214 nm, peptide 1 g/L, triplicate
Residues, ends and D or L forms follow the SMILES beside them.
observable: tR’ (adjusted retention time) (min)
# number only, unit min dropped from output

Below, 3 molecules whose answers are already recorded.
molecule	tR’ (adjusted retention time), min
CCCCCCCCCCCC(=O)N[C@@H](CCCNC(=N)N)C(=O)N[C@@H](Cc1ccccc1)C(=O)N[C@@H](CCCNC(=N)N)C(N)=O [compound 107, C12-RFR-NH2] (HELM PEPTIDE1{[CCCCCCCCCCCC(=O)[*:2]].R.F.R.[am]}$$$$V2.0)	38.67
CCCCCCCCCCCC(=O)N[C@@H](CCCNC(=N)N)C(=O)N[C@@H](CCCNC(=N)N)C(N)=O [compound 3, C12-RR-NH2, reference compound] (HELM PEPTIDE1{[CCCCCCCCCCCC(=O)[*:2]].R.R.[am]}$$$$V2.0)	32.58
CCCCCCCCCC(=O)N[C@@H](Cc1ccccc1)C(=O)N[C@@H](CCCNC(=N)N)C(=O)N[C@@H](CCCNC(=N)N)C(N)=O [compound 24, C10-FRR-NH2] (HELM PEPTIDE1{[CCCCCCCCCC(=O)[*:2]].F.R.R.[am]}$$$$V2.0)	34.68

Next molecule, tR’ (adjusted retention time) to be filled in.
The reported value for CCCCCCCCCC(=O)N[C@@H](CCCNC(=N)N)C(=O)N[C@@H](CCCNC(=N)N)C(N)=O [compound 2, C10-RR-NH2, reference compound] (HELM PEPTIDE1{[CCCCCCCCCC(=O)[*:2]].R.R.[am]}$$$$V2.0) in terms of tR’ (adjusted retention time) is 24.30
